target: T1, recombinant human CD14 (B294801, histidine tagged) (Homo sapiens, UniProt P08571)
T1 construct: His; purchased Shanghai BaiYing Biotechnology Co., Ltd B294801 (Batch number 20200518A22)
T1 sequence (P08571 20-345): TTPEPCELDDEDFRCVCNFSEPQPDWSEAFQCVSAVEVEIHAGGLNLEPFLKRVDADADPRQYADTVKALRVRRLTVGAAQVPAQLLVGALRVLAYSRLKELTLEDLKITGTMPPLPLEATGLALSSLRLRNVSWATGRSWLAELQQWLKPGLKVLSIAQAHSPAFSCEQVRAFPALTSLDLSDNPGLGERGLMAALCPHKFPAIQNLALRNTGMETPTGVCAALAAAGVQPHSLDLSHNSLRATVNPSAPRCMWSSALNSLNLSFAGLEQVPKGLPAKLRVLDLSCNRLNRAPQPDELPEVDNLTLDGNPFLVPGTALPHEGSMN
test: Biacore 8K kinetic and affinity test of humanized antibodies (Example 8)
Assay type: binding
assay.setup: Biacore 8K, KD=koff/kon, analyte B294801 0.78125-25 nM, capture 1 μg/mL
Listing: Kd of selected molecules
Write it as a number; the unit nM goes unstated.

Request: May I ask what Kd has been recorded for D6DD3D010: humanized anti-CD14 antibody; VH SEQ ID NO: 37, VL SEQ ID NO: 39 (antibody, V domains shown) VH: QVQLQESGPGLVKPSETLSLTCTVSGYSITSDSAWNWIRQPPGKGLEWIGYISYSGSTSYNPSLKSRVTISRDTSKNQFSLKLSSVTAADTAVYYCVRGLRFAYWGQGTLVTVSS VL: DIVLTQSPDSLAVSLGERATINCRASESVDSYVNSFLHWYQQKPGQPPKLLIYRASNLQSGVPDRFSGSGSRTDFTLTISSLQAEDVAVYYCQQSNEDPYTFGQGTKLEIK ?
Response: 0.555

Request: Consider the molecule shown here: D6DD3D015: humanized anti-CD14 antibody; VH SEQ ID NO: 57, VL SEQ ID NO: 59 (antibody, V domains shown) VH: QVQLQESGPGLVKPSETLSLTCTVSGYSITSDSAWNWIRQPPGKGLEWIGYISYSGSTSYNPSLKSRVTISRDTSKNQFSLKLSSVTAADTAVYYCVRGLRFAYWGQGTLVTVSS VL: DIQLTQSPSSLSASVGDRVTITCRASESVDSYVNSFLHWYQQKPGKAPKLLIYRASNLQSGVPSRFSGSGSRTDFTLTISSLQPEDVATYYCQQSNEDPYTFGQGTKLEIK What is its recorded Kd?
Response: 0.532
